Sequence of the target: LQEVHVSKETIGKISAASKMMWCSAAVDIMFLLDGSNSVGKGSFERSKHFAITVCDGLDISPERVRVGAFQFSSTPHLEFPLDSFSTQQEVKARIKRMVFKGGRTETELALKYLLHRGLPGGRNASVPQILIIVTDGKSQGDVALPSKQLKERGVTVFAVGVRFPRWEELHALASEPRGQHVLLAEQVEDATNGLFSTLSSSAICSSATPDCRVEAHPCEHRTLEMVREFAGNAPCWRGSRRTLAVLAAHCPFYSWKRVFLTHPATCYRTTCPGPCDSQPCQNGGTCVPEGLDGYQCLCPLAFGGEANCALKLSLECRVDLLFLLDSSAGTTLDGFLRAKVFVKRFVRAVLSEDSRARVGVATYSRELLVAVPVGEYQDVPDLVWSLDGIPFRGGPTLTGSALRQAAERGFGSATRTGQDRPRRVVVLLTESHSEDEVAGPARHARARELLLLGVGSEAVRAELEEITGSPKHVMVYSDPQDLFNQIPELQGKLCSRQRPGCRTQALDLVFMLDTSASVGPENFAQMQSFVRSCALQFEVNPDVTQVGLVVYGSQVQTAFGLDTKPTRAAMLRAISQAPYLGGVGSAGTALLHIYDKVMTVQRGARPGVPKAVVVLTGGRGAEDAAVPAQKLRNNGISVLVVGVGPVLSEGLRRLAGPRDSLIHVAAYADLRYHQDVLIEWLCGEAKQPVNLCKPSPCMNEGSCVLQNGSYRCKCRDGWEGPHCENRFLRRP
Residues, ends and D or L forms follow the SMILES beside them.
MEASUREMENT_KIND: Kd (µM)
Kindly provide the numeric value in µM only, without the unit symbol.

Please review the following examples before continuing.
Given item N=C(N)NCCC[C@H](NC(=O)[C@H](Cc1ccccc1)NC(=O)[C@H](CCCCN)NC(=O)[C@H](CO)NC(=O)[C@H](Cc1ccccc1)NC(=O)[C@@H](N)CCC(=O)O)C(=O)N[C@@H](CO)C(=O)O [MSJ2, EFSKFRS] (H-EFSKFRS-OH) , the value recorded as its Kd is 55

Given item CC(C)C[C@H](NC(=O)[C@H](CCCCN)NC(=O)[C@@H](N)CC(C)C)C(=O)NCC(=O)N[C@@H](CCC(=O)O)C(=O)N[C@@H](CCCCN)C(=O)N[C@@H](Cc1c[nH]c2ccccc12)C(=O)O [MSJ6, LKLGEKW] (H-LKLGEKW-OH) , the value recorded as its Kd is 62

Given item N=C(N)NCCC[C@H](NC(=O)[C@H](CC(N)=O)NC(=O)[C@H](Cc1ccccc1)NC(=O)[C@H](CO)NC(=O)[C@H](CO)NC(=O)[C@H](Cc1ccc(O)cc1)NC(=O)CN)C(=O)O [MSJ11, GYSSFNR] (H-GYSSFNR-OH) , the value recorded as its Kd is 61

New cases:
Given item CSCC[C@H](N)C(=O)N[C@@H](CO)C(=O)N[C@H](C(=O)NCC(=O)N[C@@H](CC(C)C)C(=O)N[C@@H](CO)C(=O)N[C@@H](CO)C(=O)O)[C@@H](C)O [MSJ3, MSTGLSS] (H-MSTGLSS-OH) , the value recorded as its Kd is 25
